Provide the recorded composite z-score for the entries that follow.
# SYSTEM_UNDER_TEST: Alpha-bungarotoxin (Bungarus multicinctus) (UniProt P60615)
# Sequence (P60615 whole entry, looked up): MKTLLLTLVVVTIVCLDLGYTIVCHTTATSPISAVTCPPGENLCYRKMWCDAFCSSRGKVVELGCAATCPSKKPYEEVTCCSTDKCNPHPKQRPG
# TEST_DETAILS: alpha-bungarotoxin binders on microarray, profiling panel, artefact control for SMM control protein annotation, biochemical, small-molecule microarray, Alexa647 label, 635/667 nm fluorescence (AID 1117)
# TEST_CONDITIONS: alpha-BTX-A647 binding fluorescence, higher = more signal
Enter a number only.

For reference, reported composite z-score for CN(C)CCCCNC(=O)[C@H]1C[C@H]2C(=O)N[C@@H](CCCCN(C)C)C(=O)N2[C@H]1c1ccc(O)cc1 stands at 0.457

Reported composite z-score for COCCOC(=O)N1C(=O)[C@@]2(c3cc(C#CC4=CCCCC4)ccc31)[C@H](c1ccc(O)cc1)N1[C@H](c3ccccc3)[C@H](c3ccccc3)OC(=O)[C@H]1[C@@H]2C(=O)N1CCc2cc(OC)c(OC)cc2C1 was 0.924

Entry under test: COc1ccc(C(=O)Nc2ccc(CN3C(=O)[C@@]4(O[C@@H](CC(=O)N(CCO)Cc5ccccc5)[C@H]([Si](C)(C)c5ccc(OC)cc5)[C@H]4C)c4ccccc43)cc2)cc1 . Its composite z-score was 0.331
